assay: Cytotoxicity test (MTT) on Vero cells; assay type: cell-based, African green monkey; conditions: African green monkey, 24 h incubation
measurement_label: CC50 at 24 h

Entry Nc1ccc(S(=O)(=O)Nc2ncccn2)cc1 : reported CC50 at 24 h = ?
1.39 µM
